Entry source: patent US20130209454A1

Tgt: HIV-1 strain TRO.11 envelope (gp120) (HIV-1)
Experimental details: cell-based or functional assay
I'd be grateful if you could share measured neutralization IC50 for these entries.
# output: bare number, implied unit µg/mL

I have this binder here, 3BNC55 IgG (antibody, V domains shown) VH: QVQLVQSGTAVKRPGASVRVSCQASGYTFTDYFIYWWRQAPGQGLEWLGWINPLTSQPSYPSRFQGRLTLTRDTFDEMLYMDLRGLRSDDTGIYFCARRHSDYCDFDIWGSGTQIIVSS VL: DIQMTQSPSSLSASVGDKVTITCQTSAGYLNWYQQRRGRAPKLLMYDGSRLVTGVPSRFSGRRWGTQYNLTIGSLQPEDIATYYCQVYEFFGPGTRLDLKS , and I need its recorded neutralization IC50.
7.6

Using the record for 3BNC60 IgG (antibody, V domains shown) VH: QVHLSQSGAAVTKPGASVRVSCEASGYKISDHFIHWWRQAPGQGLQWVGWINPKTGQPNNPRQFQGRVSLTRQASWDFDTYSFYMDLKAVRSDDTAIYFCARQRSDFWDFDVWGSGTQVTVSS VL: DIQMTQSPSSLSARVGDTVTITCQANGYLNWYQQRRGKAPKLLIYDGSKLERGVPARFSGRRWGQEYNLTINNLQPEDVATYFCQVYEFIVPGTRLDLKRTVA , report its neutralization IC50.
0.07

Which neutralization IC50 is reported for this binder? 12A12 IgG (antibody, V domains shown) VH: SQHLVQSGTQVKKPGASVRISCQASGYSFTDYVLHWWRQAPGQGLEWMGWIKPVYGARNYARRFQGRINFDRDIYREIAFMDLSGLRSDDTALYFCARDGSGDDTSWHLDPWGQGTLVIVSA VL: DIQMTQSPSSLSASVGDRVTITCQAGQGIGSSLQWYQQKPGKAPKLLVHGASNLHRGVPSRFSGSGFHTTFSLTISGLQRDDFATYFCAVLEFFGPGTKVEIKR
0.3

I'd like to know its neutralization IC50. The binder in question is 3BNC117 IgG (antibody, V domains shown) VH: QVQLLQSGAAVTKPGASVRVSCEASGYNIRDYFIHWWRQAPGQGLQWVGWINPKTGQPNNPRQFQGRVSLTRHASWDFDTFSFYMDLKALRSDDTAVYFCARQRSDYWDFDVWGSGTQVTVSS VL: DIQMTQSPSSLSASVGDTVTITCQANGYLNWYQQRRGKAPKLLIYDGSKLERGVPSRFSGRRWGQEYNLTINNLQPEDIATYFCQVYEFVVPGTRLDLKRTVA
0.6
